Data origin: paper PMC12316891

List of ΔTm at 10 µM values.
# subjectOfTest: BRD4 (BD1) (Homo sapiens, UniProt O60885)
# Construct: A pET28 plasmid containing residues 44–168 of BRD4 (BD1), a 6xHis tag, a TEV protease cleavage site; 6xHis (N, cleaved yes); made in house; host or cells: E. coli Rosetta (D3)
# assaySummary: Differential scanning fluorimetry (DSF) single-dose thermal shift screening
# Assay type: binding
# testConditions: DSF, compound 10 µM, BRD4 (BD1) 2 µM, n = 3, decimal comma; read-out: ΔTm ºC at [10 µM]
propertyLabel: ΔTm at 10 µM (°C)

molecule: COc1ccc(-n2c(C)nnc2SCC(=O)NCC2(N)CCOCC2)cc1 [Compound 28]
propertyLabel: ΔTm at 10 µM
measValue: 0.36

molecule: Cc1nnc(NC(=O)CNC(c2ccc(F)cc2)c2cnn(C)c2)s1 (centres unmarked) [Compound 88]
propertyLabel: ΔTm at 10 µM
measValue: 0.54

molecule: Cc1cc(C(=O)NCCc2nc3cc(Cl)ccc3[nH]2)n2ncnc2n1 [Compound 78]
propertyLabel: ΔTm at 10 µM
measValue: 1.53

molecule: CC(=O)c1c(C)[nH]c(C(=O)N2CCCC(c3cn(CC4CC5CC5C4)nn3)C2)c1C (centres unmarked) [Compound 29]
propertyLabel: ΔTm at 10 µM
measValue: -1.17

molecule: COC1(CNC(=O)c2nscc2Br)CN(C(=O)C2CCS(=O)(=O)N2)C1 (centres unmarked) [Compound 63]
propertyLabel: ΔTm at 10 µM
measValue: 0.7

molecule: CCCc1c(C(=O)N2CCC(F)(F)C(CNC(=O)c3nc(C)c(C)s3)C2)[nH]c(C)c1C(C)=O (centres unmarked) [Compound 25]
propertyLabel: ΔTm at 10 µM
measValue: 2.41

molecule: COc1cccnc1C(=O)N1CCC2(CC(NC(=O)c3occc3Br)c3ccccc3O2)C1 (centres unmarked) [Compound 66]
propertyLabel: ΔTm at 10 µM
measValue: 0.83

molecule: CNC(=O)C1(C(=O)N[C@@H]2CCCC[C@H]2NC(=O)c2cnsn2)CCC1 [Compound 65]
propertyLabel: ΔTm at 10 µM
measValue: 0.32

###

# subjectOfTest: His6-BRD4 (BD1) (Homo sapiens, UniProt O60885)
# Construct: A pET28 plasmid containing residues 44–168 of BRD4 (BD1), a 6xHis tag, a TEV protease cleavage site; made in house; host or cells: E. coli Rosetta (D3)
# assaySummary: Surface plasmon resonance (SPR) single-dose screening
# Assay type: binding
# testConditions: SPR, compound 10 µM, 1% DMSO, n = 2, decimal comma

molecule: CCn1nnc2cc(C(=O)N3CCCN(C(=O)c4ccccc4Cl)C(c4ccccc4)C3)ccc21 (centres unmarked)
RUs at [10 µM]: 23,05 ± 1,41 RUs
--
molecule: Cc1ncc(CNC(=O)NCc2cccc(S(=O)(=O)NC(C)C)c2)c(O)n1
RUs at [10 µM]: 19,09 ± 5,61 RUs
--
molecule: COc1ccc(-n2c(C)nnc2SCC(=O)NC2CCC3(CNC3)C2)cc1 (centres unmarked)
RUs at [10 µM]: 17,72 ± 5,47 RUs
--
molecule: COc1ccc(C2(NCC(=O)Nc3cc(-n4nnnc4C)ccc3F)CCOCC2)cc1
RUs at [10 µM]: 2,91 ± 1,98 RUs
--
molecule: Cc1cc(C)n2nc(NC(=O)N3CCc4cc(Cl)cc(Cl)c4C3)nc2n1
RUs at [10 µM]: 67,27 ± 12,19 RUs
